Target: SARS-CoV-2 M^pro (Severe acute respiratory syndrome coronavirus 2, UniProt P0DTD1)
Test: biochemical
Design: dose or concentration left out as unconfirmed
Details: initial screen, Table S4; read-out: Normalized Percent FRET inhibition
Reported inhibition values for a set of molecules
measured property: inhibition (%)

>>> readout_value("CC1(C)CCC(CN2CCN(c3ccc(C(=O)NS(=O)(=O)c4ccc(NCC5CCOCC5)c([N+](=O)[O-])c4)c(Oc4cnc5[nH]ccc5c4)c3)CC2)=C(c2ccc(Cl)cc2)C1 [ABT199]")
6.27
>>> readout_value("COc1ccc(-c2ccc3cc(C(=O)O)ccc3c2)cc1C12CC3CC(CC(C3)C1)C2 [Adapalene]")
0.236
>>> readout_value("C#C[C@]1(O)CC[C@H]2[C@@H]3CCc4cc(O)ccc4[C@H]3CC[C@@]21C [Ethynyl estradiol]")
-3.17
>>> readout_value("C=CC[N+]1([C@H]2C[C@H]3[C@@H]4CC[C@H]5C[C@H](O)[C@@H](N6CCOCC6)C[C@]5(C)[C@H]4CC[C@]3(C)[C@H]2OC(C)=O)CCCC1 [Rocuronium bromide]")
11.3
>>> readout_value("CC(C)C(=O)OCC(=O)[C@@]12O[C@H](C3CCCCC3)O[C@@H]1C[C@H]1[C@@H]3CCC4=CC(=O)C=C[C@]4(C)[C@H]3[C@@H](O)C[C@@]12C [Ciclesonide]")
-0.393
>>> readout_value("Cc1cnc(C(=O)N[C@H]2CCCCC/C=C\\[C@@H]3C[C@@]3(C(=O)NS(=O)(=O)C3CC3)NC(=O)[C@@H]3C[C@@H](Oc4nc5ccccc5c5ccccc45)CN3C2=O)cn1 [Paritaprevir]")
0.758

###

Biological target: UniProtKB P0DTD1
Assay: biochemical
Parameters: dose or concentration left out as unconfirmed
Details: initial screen, Table S4; read-out: Normalized Percent FRET inhibition
measured property: inhibition (%)

>>> readout_value("C[C@H]1CN(C[C@H](Cc2ccccc2)C(=O)NCC(=O)O)CC[C@@]1(C)c1cccc(O)c1")
-3.26
>>> readout_value("NS(=O)(=O)c1cc2c(cc1C(F)(F)F)NC(Cc1ccccc1)NS2(=O)=O (stereo not drawn) [Bendroflumethiazide]")
11.6
>>> readout_value("COC(=O)N[C@H](C(=O)N[C@@H](Cc1ccccc1)[C@@H](O)CN(Cc1ccc(-c2ccccn2)cc1)NC(=O)[C@@H](NC(=O)OC)C(C)(C)C)C(C)(C)C")
-1.97
>>> readout_value("C=CC[C@@H]1/C=C(\\C)C[C@H](C)C[C@H](OC)[C@H]2O[C@@](O)(C(=O)C(=O)N3CCCC[C@H]3C(=O)O[C@H](/C(C)=C/[C@@H]3CC[C@@H](O)[C@H](OC)C3)[C@H](C)[C@@H](O)CC1=O)[C@H](C)C[C@@H]2OC")
-0.417
>>> readout_value("CO[C@@]1(NC(=O)C2SC(=C(C(N)=O)C(=O)O)S2)C(=O)N2C(C(=O)O)=C(CSc3nnnn3C)CS[C@@H]21 (stereo partly drawn)")
2.14
>>> readout_value("C[C@@H](O[C@H]1OCCN(Cc2n[nH]c(=O)[nH]2)[C@H]1c1ccc(F)cc1)c1cc(C(F)(F)F)cc(C(F)(F)F)c1 [Aprepitant]")
3.37

###

Target: SARS-CoV-2 M^pro (Severe acute respiratory syndrome coronavirus 2)
Assay: biochemical
Conditions: initial screen, 100 μM of drug, Table S4
Recorded Normalized Percent FRET inhibition values for a group of molecules are listed next.
measured property: Normalized Percent FRET inhibition (%)

>>> readout_value("CNC(=O)c1cnn(-c2nc(N)c3ncn([C@@H]4O[C@H](CO)[C@@H](O)[C@H]4O)c3n2)c1")
-0.1877
>>> readout_value("CO/N=C(\\C(=O)N[C@@H]1C(=O)N2C(C(=O)O)=C(CSc3nnnn3C)CS[C@H]12)c1csc(N)n1.CO/N=C(\\C(=O)N[C@@H]1C(=O)N2C(C(=O)O)=C(CSc3nnnn3C)CS[C@H]12)c1csc(N)n1.Cl [Cefmenoxime hydrochloride]")
-1.304
>>> readout_value("Cc1cncc(CN2CCC(=C3c4ccc(Cl)cc4CCc4cccnc43)CC2)c1.O=C(O)/C=C/C(=O)O [Rupatadine Fumarate]")
-2.415
>>> readout_value("CCC(=O)O[C@@H](O[P@](=O)(CCCCc1ccccc1)CC(=O)N1C[C@H](C2CCCCC2)C[C@H]1C(=O)[O-])C(C)C.[Na+] [Fosinopril sodium]")
3.315
>>> readout_value("COc1ccc(CN2CCN(C(c3ccc(F)cc3)c3ccc(F)cc3)CC2)c(OC)c1OC.Cl.Cl [Lomerizine hydrochloride]")
-0.2765
>>> readout_value("Cc1cc(O)c(C(=O)N[C@@H](C(=O)N[C@@H]2C(=O)N3C(C(=O)O)=C(CSc4nnnn4C)CS[C@H]23)c2ccc(O)cc2)cn1 [Cefpiramide acid]")
7.373

Where do these numbers come from? They come from paper PMC8315004.
